# assay: in vivo
# Type: in vivo, mice
# run parameters: male, CD-1, mouse, plasma, ip, 10 mg/kg, mice, IP 10 mg/kg, plasma, 5 min, mean of 3; read-out: Plasma concentration C (mean)
attribute measured: concentration at 5 min (ng/mL)
// note: answer is a bare numeric in ng/mL

Lab note: measured concentration at 5 min of CCc1nc2c(C)nc(C)cc2n1-c1ccc(CCNC(=O)NS(=O)(=O)c2ccc(C)cc2)cc1 [Grapiprant, reference compound] was 609

----------
# tested system: EP4R (Homo sapiens, UniProt P35408)
# Construct: Tango fusion cassette (only 'tango' is printed); expressed in transfected cells; host or cells: HTLA cells (tTA-dependent luciferase reporter, β-arrestin2-TEV fusion)
# Sequence (P35408 whole entry, the tested form may be a part): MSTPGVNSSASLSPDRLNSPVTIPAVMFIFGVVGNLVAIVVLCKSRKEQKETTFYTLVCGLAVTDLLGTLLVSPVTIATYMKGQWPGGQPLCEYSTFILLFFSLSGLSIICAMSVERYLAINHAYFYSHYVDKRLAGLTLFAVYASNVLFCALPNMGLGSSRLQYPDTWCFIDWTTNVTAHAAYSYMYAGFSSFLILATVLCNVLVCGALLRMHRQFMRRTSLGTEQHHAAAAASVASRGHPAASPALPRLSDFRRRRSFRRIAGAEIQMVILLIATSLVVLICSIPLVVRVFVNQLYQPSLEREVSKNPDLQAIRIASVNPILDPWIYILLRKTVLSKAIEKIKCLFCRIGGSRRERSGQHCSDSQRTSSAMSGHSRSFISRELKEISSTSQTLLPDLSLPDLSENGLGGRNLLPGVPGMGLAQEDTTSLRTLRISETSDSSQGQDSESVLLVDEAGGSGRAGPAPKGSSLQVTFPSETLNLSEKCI
# assay: biochemical
# Format: binding
# run parameters: […], read-out: % displacement of 3HPGE2 at 10 µM, 10 µM compound vs 10 nM 3H-PGE2
I'd appreciate it if you could supply inhibition at 10 µM values for the items below.
// note: answer is a bare numeric in %

Lab note: measured inhibition at 10 µM of `O=C(O)CCN(Cc1ccccc1)C(=O)CC1(C(F)(F)F)CC1` was -12.3

Lab note: measured inhibition at 10 µM of Cn1nc(-c2ccccc2)cc1CNC(=O)NC1CCC(C(=O)O)CC1 (centres unmarked) was -0.1

Lab note: measured inhibition at 10 µM of CC(Sc1ccccc1Cl)C(=O)N1CCCC(Cc2nnn[nH]2)C1 (centres unmarked) was 10.8

Lab note: measured inhibition at 10 µM of `Cc1ccc(-n2c(SCc3nnn[nH]3)nc3ccccc3c2=O)cc1` was -17.6

Lab note: measured inhibition at 10 µM of `CN(C(=O)c1nc(C2CC2)n(-c2ccccc2Cl)n1)c1nnn[nH]1` was -1.5
